Provenance of the data: ChEMBL document CHEMBL1129000

- Measured Target: O-acyltransferase (Oryctolagus cuniculus, UniProt G1SFD9)
- Sequence (G1SFD9 1-524): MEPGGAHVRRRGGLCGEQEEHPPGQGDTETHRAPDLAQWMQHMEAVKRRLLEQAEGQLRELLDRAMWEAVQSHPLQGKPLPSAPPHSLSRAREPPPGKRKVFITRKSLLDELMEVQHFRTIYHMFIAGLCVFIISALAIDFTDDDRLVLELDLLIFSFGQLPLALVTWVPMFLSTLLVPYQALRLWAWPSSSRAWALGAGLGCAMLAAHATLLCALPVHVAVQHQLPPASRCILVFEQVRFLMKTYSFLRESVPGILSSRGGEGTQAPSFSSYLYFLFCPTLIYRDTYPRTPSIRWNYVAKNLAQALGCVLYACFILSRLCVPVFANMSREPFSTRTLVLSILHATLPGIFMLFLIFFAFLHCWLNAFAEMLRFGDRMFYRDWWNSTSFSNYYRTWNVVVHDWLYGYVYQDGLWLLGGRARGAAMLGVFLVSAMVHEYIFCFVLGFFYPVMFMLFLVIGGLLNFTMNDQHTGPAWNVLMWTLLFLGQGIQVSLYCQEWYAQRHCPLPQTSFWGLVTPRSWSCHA
- Assay Comment: In vitro inhibitory activity against Acyl coenzyme A:cholesterol acyltransferase in intestinal microsomes isolated from cholesterol fed rabbits (IAI).
Measurement Label: pIC50
Quick note: pIC50 means taking -log10 of the concentration in moles per liter.

Q. Can you look up the measured pIC50 of `CCOC(=O)CC(=O)Nc1c(C(C)C)cccc1C(C)C` for me?
A. 5.74

Q. Endpoint output: pIC50 of `CC(C)c1cccc(C(C)C)c1NC(=O)CC(=O)Oc1c(C(C)C)cccc1C(C)C` . Value?
A. 7.38

Q. Can you look up the measured pIC50 of CCCCCCCCCCC(C)OC(=O)CC(=O)Nc1c(C(C)C)cccc1C(C)C (stereo not given) for me?
A. 8.22

Q. Which pIC50 is reported for this compound? `COc1cccc(OC)c1OC(=O)CC(=O)Nc1c(C(C)C)cccc1C(C)C`
A. 5.77

Q. Record request: pIC50 value, item `Cc1cccc(C)c1NC(=O)CC(=O)Oc1c(C(C)C)cccc1C(C)C`
A. 6.68

Q. Field request: pIC50 | item: `CC(C)c1cccc(C(C)C)c1OC(=O)CC(=O)Nc1c(F)cccc1F`
A. 5.21

Q. Which pIC50 is listed for `CCCCCCCCOC(=O)CC(=O)Nc1c(C(C)C)cccc1C(C)C` ?
A. 6.59

Q. For the compound CCCCCCCCC(C)OC(=O)CC(=O)Nc1c(C(C)C)cccc1C(C)C (stereo not given) , what pIC50 is on record?
A. 7.92

Q. Which pIC50 is reported for this compound? `CCCCCCCCCCCCCCCCCCOC(=O)CC(=O)Nc1c(C(C)C)cccc1C(C)C`
A. 7.28

Q. Please report the recorded pIC50 for `CC(C)c1cccc(C(C)C)c1OC(=O)CC(=O)Nc1c(N(C)C)cccc1N(C)C` .
A. 7.15
